tested on: MCF7 breast; assay: NCI tumour cell line growth inhibition, 48 h

Compound: Cc1ccc(/C=C2/N=C(N/N=C\C(O)C(O)C(O)CO)NC2=O)cc1 (stereo not given)
TGI: > 100 µM
//
Compound: Cn1nc2ccc([N+](=O)[O-])cc2[n+]1[O-]
TGI: > 100 µM
//
Compound: Cc1cc(-c2nnc(/C=C/c3ccc4c(c3)OCO4)o2)n[nH]1
TGI: > 50 µM
//
Compound: O=C1c2c(O)cc(O)cc2C(C2OC(CO)C(O)C(O)C2O)c2cc(CO)cc(O)c21 (stereo not given)
TGI: > 100 µM
//
Compound: O=[N+]([O-])c1cccc(-c2nc(-c3ccc(Cl)cc3Cl)cn2-c2ccccc2)c1
TGI: 4.02 µM
//
Compound: C/C=C/C/C=C/[C@H](C)C[C@H](O)[C@@H]1C[C@@H]2O[C@H]2/C=C/[C@@H]2OC(C)(C)O[C@H]2/C=C/C[C@H](C)CC(=O)O1
TGI: > 100 µM
//
Compound: CCN(CC)Cc1ccccc1CC(=O)N1c2ccccc2C(=O)Nc2cccnc21
TGI: > 100 µM
//
Compound: O=C1C2=Cc3ccccc3OC2(O)Oc2ccccc21 (stereo not given)
TGI: > 100 µM
//
Compound: CCOC(=O)/C(=C\NC(C)(C)C)c1nc2ccccc2[nH]1
TGI: 43.5 µM
//
Compound: COC(=O)C1CCC(=O)N1CN(C(C)=O)c1cc(OC)ccc1OC (stereo not given)
TGI: > 100 µM

---

tested on: HOP-92 NSCLC; assay: NCI tumour cell line growth inhibition, 48 h; in the data active = GI50 below about 0.43 µM; inactive = the rest
Outcome codes: 1.0 = active, 0.0 = inactive

Molecule: O=C1/C=C/[C@@H](O)[C@@H]2C[C@@H](O)C[C@H]2/C=C/CCC[C@H](CCc2ccc3ncccc3c2)O1
Assigned Category: 0.0
//
Molecule: COc1cccc(/C=C/c2nc3c(cnn3-c3ccccc3)c(=O)[nH]2)c1
Assigned Category: 0.0
//
Molecule: CCC1C(C)C=NN1c1nc(N)nc(C(C#N)=Nc2ccc(N(C)C)cc2)n1 (centres undefined)
Assigned Category: 0.0
//
Molecule: COCCOCCOCc1n(Cc2ccc3ccccc3c2)c2ccccc2[n+]1Cc1ccc2ccccc2c1
Assigned Category: 1.0

---

tested on: LOX IMVI melanoma; assay: NCI tumour cell line growth inhibition, 48 h
Listed next: entries and their corresponding TGI.

Compound: COc1ccc(C(C)c2cc(OC)c(OC)c(OC)c2)cc1 (stereo not given)
Comparison Sign: >
TGI (µM): 50

Compound: C=C1CCCC(C)(C)[C@H]1C/C=C1\CCOC1=O
Comparison Sign: =
TGI (µM): 23.6

Compound: COc1ccc2c(c1)CC1COc3cc(OC)ccc3C1O2 (stereo not given)
Comparison Sign: >
TGI (µM): 100

Compound: [N-]=[N+]=NC1(c2ccccc2)C(=O)C(Cl)=C(c2ccccc2)N(c2ccccc2)C1=O (stereo not given)
Comparison Sign: >
TGI (µM): 100

Compound: O=c1[nH]nc(-c2ccccc2)n1/N=C/c1ccco1
Comparison Sign: >
TGI (µM): 100

Compound: O=C(Nn1c(-c2cccs2)nc2ccc(I)cc2c1=O)c1ccccc1
Comparison Sign: =
TGI (µM): 46.9

Compound: OC(c1ccc(Cl)cc1)(c1ccc(Cl)cc1)c1cncnc1
Comparison Sign: >
TGI (µM): 100

Compound: COc1cccc2c1C1(O)C2CCCCCCCCCC12OCCCO2 (stereo not given)
Comparison Sign: >
TGI (µM): 61.8

Compound: N#Cc1c(C#N)c(-c2ccccc2)n(Cc2ccccc2)c1N
Comparison Sign: >
TGI (µM): 100

Compound: CC[C@H](C)C1=C(OC(C)=O)[N@+]2([O-])Oc3ccc(-c4c(O)c(O)c(-c5ccc(OC(C)=O)cc5)c(OC(C)=O)c4OC(C)=O)cc3O[C@]2([C@@H](C)CC)C(=O)N1O
Comparison Sign: >
TGI (µM): 50

Compound: Cc1c(Cl)c(=O)oc2cc(OC/C=C3\CCC(=O)O3)ccc12
Comparison Sign: =
TGI (µM): 29.7

Compound: OB(O)c1ccccc1C#Cc1ccccc1B(O)O
Comparison Sign: =
TGI (µM): 51.1

Compound: COc1cc2c(cc1OC)C1c3ccccc3CCN1CCC2 (stereo not given)
Comparison Sign: >
TGI (µM): 100

Compound: Nc1ncnc2c1ncn2C1OC(COS(N)(=O)=O)C(O)C1O (stereo not given)
Comparison Sign: =
TGI (µM): 0.0382

Compound: CC(C)(C)OC(=O)N1CC(CCl)c2ccc(O)cc21 (stereo not given)
Comparison Sign: =
TGI (µM): 3.72

Compound: COC(=O)[C@H](Cc1ccccc1)NC(=O)N(CCC#N)CCCCN(CCC#N)C(=O)N[C@@H](Cc1ccccc1)C(=O)OC
Comparison Sign: >
TGI (µM): 100

Compound: [N-]=[N+]=NCCCn1c2c(c3ccc([N+](=O)[O-])cc3c1=O)C(=O)c1cc3c(cc1-2)OCO3
Comparison Sign: =
TGI (µM): 1.02

Compound: O=S(=O)(O)c1cc(S(=O)(=O)O)c2cc(N=Nc3c(O)ccc4ccccc34)ccc2c1
Comparison Sign: >
TGI (µM): 100

Compound: COc1ccc(C(=O)O[C@H]2CC[C@@]3(C)[C@@H]4CC[C@H]5[C@]6(O)C[C@H](O)[C@@]7(O)[C@@H](CN8C[C@@H](C)CC[C@H]8[C@@]7(C)O)[C@]6(O)C[C@@]53OC24O)cc1OC
Comparison Sign: >
TGI (µM): 100

Compound: O=C(O)c1cc2ccccc2c2c3c(ccc12)OCO3
Comparison Sign: =
TGI (µM): 766

---

Parameter GI50: see the listing below.
test system: T-47D breast; assay: NCI tumour cell line growth inhibition, 48 h

Compound: N#CC1=C(N)NC(=S)NC1c1ccc(-c2ccc(-c3nc4ccccc4o3)cc2)s1 (stereo not given)
GI50: 15.4 µM

Compound: Cc1cc(C(=O)Nc2n[nH]c3ccccc23)n[nH]1
GI50: > 100 µM

Compound: CCOC(=O)C(Cc1c[nH]c2cc(N(CCO)CCO)ccc12)(NC(C)=O)C(=O)OCC
GI50: 472 µM

Compound: COc1cc(-n2cc(-c3ccccc3)[nH]c2=O)cc(OC)c1OC
GI50: 30.5 µM

Compound: Cc1ccc(Nc2cc(Cl)c([N+](=O)[O-])cc2[N+](=O)[O-])cc1
GI50: 3.28 µM

---

test system: DU-145 prostate; assay: NCI tumour cell line growth inhibition, 48 h
GI50 reference

Compound: N#Cc1ccc(-c2c(-c3ncn[nH]3)sc(N3CCOCC3)c2C#N)c(F)c1
GI50: 1660 nM
--
Compound: CCCCCCCCCCCCCCCCCCNCc1ccc(Cl)cc1
GI50: 2060 nM
--
Compound: Nc1nonc1-c1nc2ccccc2n1Cc1ccc(F)cc1
GI50: > 100000 nM
--
Compound: CCC1C(C)C=NN1c1nc(N)nc(C(C#N)=Nc2ccc(N(C)C)cc2)n1 (stereo unspecified)
GI50: 9320 nM
--
Compound: Cc1ccc(C(=O)c2sc3nc4c(cc3c2N)CCCC4)c(C)c1
GI50: 838 nM
--
Compound: Nc1ccccc1C#C/C=C\C#CC#C/C=C\C#Cc1ccccc1N
GI50: 2970 nM
--
Compound: O=C1CC[C@H](N2Cc3c(OCc4ccc(CN5CCOCC5)cc4)cccc3C2=O)C(=O)N1
GI50: > 100000 nM
--
Compound: O=S(=O)(NCCNc1nccc(-c2c(-c3ccc(F)c(O)c3)nc3sccn23)n1)c1ccc(Cl)cc1
GI50: 2900 nM
--
Compound: CC(C)(C)c1cc(C(=O)Nc2ccc(C(=O)NCCN)cc2)cc(C(C)(C)C)c1
GI50: 3460 nM
--
Compound: COCCOCCOCc1n(Cc2ccc3ccccc3c2)c2ccccc2[n+]1Cc1ccc2ccccc2c1
GI50: 766 nM
--
Compound: CCCCCCCCCC[C@@H](O)[C@@H]1CC[C@@H]([C@@H]2CC[C@@H]([C@@H](O)CCCCCCCCCC[C@H](O)CC3=CC(C)OC3=O)O2)O1 (stereo partly specified)
GI50: 23500 nM

---

Below, each entry is listed with its recorded TGI.
tested on: NCI/ADR-RES ovarian; assay: NCI tumour cell line growth inhibition, 48 h

Compound: NCCCOc1cc2ccccc2cc1C(=O)Nc1ccc(Cl)cc1OC(=O)c1cc2ccccc2cc1OCCCN
Units Text: µM
Comparison Sign: =
TGI: 2.79
--
Compound: C=C1[C@H]2O[C@H]2[C@@H](OC(C)=O)[C@@]2(C)[C@@H](OC(C)=O)C[C@@H](OC(=O)CCC)[C@@](C)(O)[C@@H]2[C@@H](OC(C)=O)[C@]2(O)[C@@H](C)C(=O)O[C@H]2[C@H]1Cl
Units Text: µM
Comparison Sign: >
TGI: 100
--
Compound: C=C1CCCC(C)(C)[C@H]1C/C=C1\CCOC1=O
Units Text: µM
Comparison Sign: =
TGI: 26.8
--
Compound: Cc1csc(NNC(N)=O)n1
Units Text: µM
Comparison Sign: >
TGI: 100
--
Compound: O=C1Nc2cc(-c3cccc(O)c3)ccc2/C1=C/c1ccc[nH]1
Units Text: µM
Comparison Sign: =
TGI: 12.5
--
Compound: CC(=O)NC1C(OC(C)C(=O)NC(C(=O)NC(CCC(=O)NCCCNC2c3ccccc3Nc3cccc([N+](=O)[O-])c32)C(N)=O)C(C)C)C(O)C(CO)OC1(C)OCc1ccccc1 (centres undefined)
Units Text: µM
Comparison Sign: =
TGI: 4.76
--
Compound: Cc1cc(C(=O)Nc2n[nH]c3ccccc23)n[nH]1
Units Text: µM
Comparison Sign: >
TGI: 100
--
Compound: CC(=O)OC1OC(c2ccoc2)C[C@@]12C1CCC3O[C@]3(C)[C@]1(C)[C@H](OC(C)=O)[C@H](OC(C)=O)[C@H]2C (some centres undefined)
Units Text: µM
Comparison Sign: >
TGI: 37.5
--
Compound: Cn1c(=O)c2sc3c4sc5c(=O)n(C)c6ccccc6c5c4sc3c2c2ccccc21
Units Text: µM
Comparison Sign: >
TGI: 100
